- Measurement target: CA IX (Homo sapiens)
- Construct: His-tag; made in house
- Experimental protocol: Carbonic anhydrase inhibition assay (p-nitrophenyl acetate hydrolysis, colorimetric, 348 nm)
- Format: biochemical
- Test conditions: mean of three independent experiments ± SEM; pH 7.6; read-out: CAIX Ki (μM ± SEM)
Observable: Ki (µM)
One number for each entry, in µM.

The cases that follow already have their Ki on record.
| Smiles entry | Measurement target | Ki, µM |
| --- | --- | --- |
| Cc1ccc(CC(=O)NNS(=O)(=O)c2ccc(C)cc2)cc1 | CA IX (Homo sapiens) | 0.29 |
| Cc1ccc(CC(=O)NNS(=O)(=O)c2ccc(Br)cc2)cc1 | CA IX (Homo sapiens) | 0.33 |
| COc1cc(C)ccc1C(=O)NNS(=O)(=O)c1ccc([N+](=O)[O-])cc1 | CA IX (Homo sapiens) | 0.58 |
| Cc1ccc(CC(=O)NNS(=O)(=O)c2ccc([N+](=O)[O-])cc2)cc1 | CA IX (Homo sapiens) | 0.55 |
| COc1cc(C)ccc1C(=O)NNS(=O)(=O)c1ccc2ccccc2c1 | CA IX (Homo sapiens) | 0.19 |

For each of the items listed, what is its Ki?
1. COc1ccc(S(=O)(=O)NNC(=O)Cc2cccc(OC)c2)cc1
2. COc1ccc(S(=O)(=O)NNC(=O)c2ccc(C)cc2OC)cc1
3. COc1ccc(S(=O)(=O)NNC(=O)Cc2ccc(C)cc2)cc1
4. COc1cccc(CC(=O)NNS(=O)(=O)c2ccc(Br)cc2)c1
5. Cc1ccc(S(=O)(=O)NNC(=O)c2ccc(C)cc2O)cc1
6. COc1cccc(CC(=O)NNS(=O)(=O)c2ccc([N+](=O)[O-])cc2)c1
7. COc1cccc(CC(=O)NNS(=O)(=O)c2ccc(C)cc2)c1
8. COc1cc(C)ccc1C(=O)NNS(=O)(=O)c1ccc(C)cc1

1. 0.65
2. 0.19
3. 0.33
4. 0.39
5. 0.51
6. 0.32
7. 1.18
8. 1.04
